Method: in vivo
Setup conditions: male, Sprague-Dawley, rat, iv
Labelling field: enter TRUE if recorded clearance is less than 20 mL/min/kg. Enter FALSE if it equals or exceeds that cut-off.

Compound string	Discrete label
C[C@@H](O)COc1ccc(C(F)(F)F)cc1C(=O)/N=c1\cc(C(C)(C)C)n(C)n1C[C@H]1CCCO1	FALSE
Cn1c(C(C)(C)C)c/c(=N\C(=O)c2cc(C(F)(F)F)ccc2OCC(C)(C)O)n1CC1CC1	TRUE
CCCCCn1/c(=N/C(=O)c2cc(C#N)ccc2OCC(C)(C)O)cc(C(C)(C)C)n1C	FALSE
CCCCCn1/c(=N/C(=O)c2cc(C(F)(F)F)ccc2OCC(C)(C)O)cc(C(C)(C)C)n1C	TRUE

---

System tested: human CB2 receptors (Homo sapiens, UniProt P34972)
Construct: expressed in transfected cells; host or cells: HEK293
Sequence (P34972 whole entry): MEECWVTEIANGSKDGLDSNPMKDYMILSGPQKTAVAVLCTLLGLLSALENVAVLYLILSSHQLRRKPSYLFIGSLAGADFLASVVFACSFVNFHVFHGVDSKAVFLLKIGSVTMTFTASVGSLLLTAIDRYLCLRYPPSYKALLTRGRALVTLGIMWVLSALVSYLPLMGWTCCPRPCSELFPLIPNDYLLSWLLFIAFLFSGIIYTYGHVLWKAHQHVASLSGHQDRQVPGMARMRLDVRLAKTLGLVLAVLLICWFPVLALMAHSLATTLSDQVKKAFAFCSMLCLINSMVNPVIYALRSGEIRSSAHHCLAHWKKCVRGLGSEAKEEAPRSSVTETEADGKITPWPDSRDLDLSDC
Method: human CB2 radioligand binding assay ([3H]CP 55,940 competition)
Setup conditions: human CB2 (Ki, nM), HEK293 membranes, 0.5 nM [3H]CP 55,940

Compound	System tested	Ki / nM
CCOCCOCCOc1ccc(C(F)(F)F)cc1C(=O)/N=c1\cc(C(C)(C)C)n(C)n1C[C@H]1CCCO1 [Example 47]	human CB2 receptors (Homo sapiens, UniProt P34972)	70
CN1CCC[C@H]1COc1ccc(C(F)(F)F)cc1C(=O)/N=C1\SC(C)(C)CN1C[C@H]1CCCO1 [Example 33]	human CB2 receptors (Homo sapiens, UniProt P34972)	23
CC(C)(C)c1nn(CCCC#N)/c(=N/C(=O)c2cc(C(F)(F)F)ccc2OCCCC#N)s1 [Example 85]	human CB2 receptors (Homo sapiens, UniProt P34972)	20
Cn1c(C(C)(C)C)c/c(=N\C(=O)c2cc(C(F)(F)F)ccc2OC[C@@H](O)C(C)(C)C)n1C[C@H]1CCCO1 [Example 112]	human CB2 receptors (Homo sapiens, UniProt P34972)	6.7
CCS(=O)(=O)NCCOc1ccc(C(F)(F)F)cc1C(=O)/N=c1\cc(C(C)(C)C)n(C)n1C[C@H]1CCCO1 [Example 50]	human CB2 receptors (Homo sapiens, UniProt P34972)	21
Cn1c(C(C)(C)C)c/c(=N\C(=O)c2cc(Cl)ccc2OCC(C)(C)O)n1C[C@H]1CCCO1 [Example 89]	human CB2 receptors (Homo sapiens, UniProt P34972)	19
CCCCn1nc(C(C)(C)C)s/c1=N\C(=O)c1cc(C(F)(F)F)ccc1OCC(C)(C)O [Example 84]	human CB2 receptors (Homo sapiens, UniProt P34972)	1.8

---

The entries below are paired with their reported EC50.
System tested: Rat CB1 (Rattus norvegicus, UniProt P20272)
Construct: expressed in transfected cells; host or cells: HEK
Sequence (P20272 whole entry): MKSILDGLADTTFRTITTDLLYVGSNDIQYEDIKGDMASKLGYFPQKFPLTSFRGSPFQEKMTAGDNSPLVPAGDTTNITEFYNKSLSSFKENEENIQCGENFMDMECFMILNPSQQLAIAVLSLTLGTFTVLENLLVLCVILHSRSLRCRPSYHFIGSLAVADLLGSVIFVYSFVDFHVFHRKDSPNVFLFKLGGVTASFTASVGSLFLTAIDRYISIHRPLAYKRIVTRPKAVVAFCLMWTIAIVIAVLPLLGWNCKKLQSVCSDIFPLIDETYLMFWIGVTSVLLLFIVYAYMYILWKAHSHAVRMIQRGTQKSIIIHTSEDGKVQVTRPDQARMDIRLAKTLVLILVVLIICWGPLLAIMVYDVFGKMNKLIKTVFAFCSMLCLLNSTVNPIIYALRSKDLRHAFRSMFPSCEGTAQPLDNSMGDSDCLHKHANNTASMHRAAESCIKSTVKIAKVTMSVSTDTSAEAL
Method: rat CB1 cyclase functional assay (HitHunter cAMP)
Assay type: cell-based
Setup conditions: HEK cells, forskolin 37 μM; read-out: Rat CB1 cyclase (EC50)
Measured metric: EC50

Compound string	System tested	Measured metric	Observed result
Cn1c(C(C)(C)C)c/c(=N\C(=O)c2cc([N+](=O)[O-])ccc2OCC(C)(C)O)n1C[C@H]1CCCO1	Rat CB1 (Rattus norvegicus, UniProt P20272)	EC50	4.71 µM
Cn1c(C(C)(C)C)c/c(=N\C(=O)c2cc(C(F)(F)F)ccc2OCCNC(=O)OC(C)(C)C)n1C[C@H]1CCCO1	Rat CB1 (Rattus norvegicus, UniProt P20272)	EC50	> 27 µM
CCCCCn1/c(=N/C(=O)c2cc(C#N)ccc2OCC(C)(C)O)cc(C(C)(C)C)n1C	Rat CB1 (Rattus norvegicus, UniProt P20272)	EC50	> 27 µM

---

Method: pharmacokinetic studies in rats
Setup conditions: male, Sprague-Dawley, rat, in vivo, iv, 3 micromole/kg

Compound	clearance, mL/min/kg
CC(C)Cn1/c(=N/C(=O)c2cccc(C(F)(F)F)c2F)cc(C(C)(C)C)n1C [C, reference compound]	26.7
Cn1c(C(C)(C)C)c/c(=N\C(=O)c2cc(C(F)(F)F)ccc2OCC(C)(C)O)n1CCC(F)(F)F [Example 87]	5
Cn1c(C2(C)CC2)c/c(=N\C(=O)c2cc(C(F)(F)F)ccc2OCC(C)(C)O)n1C[C@H]1CCCO1 [Example 70]	30

---

System tested: rat CB2 (Rattus norvegicus, UniProt Q9QZN9)
Sequence (Q9QZN9 1-360): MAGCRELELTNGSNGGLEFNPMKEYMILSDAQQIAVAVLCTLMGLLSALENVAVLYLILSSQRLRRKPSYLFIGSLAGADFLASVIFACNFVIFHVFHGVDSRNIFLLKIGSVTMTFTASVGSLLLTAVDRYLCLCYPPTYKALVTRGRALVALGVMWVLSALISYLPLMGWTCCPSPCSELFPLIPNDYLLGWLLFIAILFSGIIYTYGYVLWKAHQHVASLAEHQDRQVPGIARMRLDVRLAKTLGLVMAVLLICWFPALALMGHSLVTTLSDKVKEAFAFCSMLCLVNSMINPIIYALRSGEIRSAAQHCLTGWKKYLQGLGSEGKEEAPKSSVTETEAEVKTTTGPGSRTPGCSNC
Method: rat CB2 radioligand binding assay ([3H]CP 55,940 competition)
Parameters: expressed in transfected cells; host or cells: HEK293
Setup conditions: rat CB2 (Ki, nM), HEK293 membranes, 0.5 nM [3H]CP 55,940

Compound	Ki
CC(=O)NCCOc1ccc(C(F)(F)F)cc1C(=O)/N=c1\cc(C(C)(C)C)n(C)n1CC1CCC1	2.9 nM
C=CC(O)COc1ccc(C(F)(F)F)cc1C(=O)/N=c1\cc(C(C)(C)C)n(C)n1C[C@H]1CCCO1 (some centres unmarked)	2.8 nM
Cn1c(C(C)(C)C)c/c(=N\C(=O)c2cc(C(F)(F)F)ccc2OCCNC(=O)OC(C)(C)C)n1C[C@H]1CCCO1	21 nM
CC1CCC(COc2ccc(C(F)(F)F)cc2C(=O)N=c2cc(C(C)(C)C)n(C)n2CC2CCCO2)O1 (single isomer, unassigned) [Example 37]	16 nM
Cn1c(C(C)(C)C)c/c(=N\C(=O)c2cc(C(F)(F)F)ccc2OC[C@@H]2CCCN2)n1C[C@H]1CCCO1	21 nM

---

System tested: Rat CB1 (Rattus norvegicus, UniProt P20272)
Construct: expressed in transfected cells; host or cells: HEK
Method: rat CB1 cyclase functional assay (HitHunter cAMP)
Assay type: cell-based
Setup conditions: Rat CB1 cyclase (EC50, nM), HEK cells, forskolin 37 μM
The entries below are paired with their reported EC50.

Compound string	EC50
Cn1c(C(C)(C)C)c/c(=N\C(=O)c2cc(C#N)ccc2OCC(C)(C)O)n1C[C@H]1CCCO1	> 27000 nM
Cn1c(C(C)(C)C)c/c(=N\C(=O)c2cc(C(F)(F)F)ccc2OC[C@@H]2COC(C)(C)O2)n1C[C@H]1CCCO1	> 27000 nM
Cn1c(C(C)(C)C)c/c(=N\C(=O)c2cc(C(F)(F)F)ccc2OC[C@@H]2CCC(=O)N2)n1C[C@H]1CCCO1	> 27000 nM
Cn1c(C(C)(C)C)c/c(=N\C(=O)c2cc(C(F)(F)F)ccc2OCCCS(C)(=O)=O)n1C[C@H]1CCCO1	> 27000 nM
Cn1c(C(C)(C)C)c/c(=N\C(=O)c2cc(C(F)(F)F)ccc2OC[C@@H]2CCN2S(C)(=O)=O)n1CC1CC1	> 27000 nM

---

System tested: Rat CB1 (Rattus norvegicus, UniProt P20272)
Construct: expressed in transfected cells; host or cells: HEK
Method: rat CB1 cyclase functional assay (HitHunter cAMP)
Format: cell-based
Setup conditions: Rat CB1 cyclase (EC50, nM), HEK cells, forskolin 37 μM
Measured metric: EC50

Compound string	Measured metric	Observed result
Cn1c(C(C)(C)C)c/c(=N\C(=O)c2cc(C(F)(F)F)ccc2OC[C@H]2COC(C)(C)O2)n1C[C@H]1CCCO1	EC50	> 27000 nM
Cn1c(C(C)(C)C)c/c(=N\C(=O)c2cc(C(F)(F)F)ccc2OCc2cnccn2)n1C[C@H]1CCCO1	EC50	> 27000 nM
Cn1c(C(C)(C)C)c/c(=N\C(=O)c2cc(C(F)(F)F)ccc2OCC[C@H]2COC(C)(C)O2)n1C[C@H]1CCCO1	EC50	> 27000 nM

---

System tested: human CB2 receptors (Homo sapiens)
Construct: expressed in transfected cells; host or cells: HEK293
Method: human CB2 radioligand binding assay ([3H]CP 55,940 competition)
Setup conditions: human CB2 (Ki, nM), HEK293 membranes, 0.5 nM [3H]CP 55,940
Labelling field: enter met if recorded Ki is less than 200 nM. Enter not met if it equals or exceeds that cut-off.

Molecule	Discrete label
Cn1c(C(C)(C)C)c/c(=N\C(=O)c2cc(C(F)(F)F)ccc2OCC(C)(C)O)n1CC1CC1	met
Cn1c(C(C)(C)C)c/c(=N\C(=O)c2cc(C(F)(F)F)ccc2NC[C@@H]2CCCO2)n1C[C@H]1CCCO1	met
CC1=NOC(Cn2/c(=N/C(=O)c3cc(C(F)(F)F)ccc3OC[C@@H]3CCCO3)cc(C(C)(C)C)n2C)C1 (stereo partly shown)	not met
Cn1c(C(C)(C)C)c/c(=N\C(=O)c2cc(C(F)(F)F)ccc2OCc2cccnc2)n1C[C@H]1CCCO1	not met
Cn1c(C(C)(C)C)c/c(=N\C(=O)c2cc(C(F)(F)F)ccc2OC[C@@H]2CCC(=O)N2)n1C[C@H]1CCCO1	met
Cn1c(C(C)(C)C)c/c(=N\C(=O)c2cc(C(F)(F)F)ccc2OC[C@@H]2CCCN2S(C)(=O)=O)n1C[C@H]1CCCO1	not met
CN(C[C@@H]1CCCO1)c1ccc(C(F)(F)F)cc1C(=O)/N=c1\cc(C(C)(C)C)n(C)n1C[C@H]1CCCO1	not met

Reference for the values: patent US8188135B2
